- System: MDCK
- PROTOCOL SUMMARY: Cellular uptake in methicillin-sensitive Staphylococcus aureus ATCC 25923 phagocytized in MDCK cells over expressing human MDR1 cells assessed as apparent cellular to extracellular concentration ratio at 250 mg/liter after 24 hrs by fluorimetry in presence of 100 uM verapamil
- Assay type: ADME, cell-based, Canis lupus familiaris
- APPLIED CONDITIONS: dog

INPUT SMILES: CCCCCCCCCC(=O)N[C@@H](Cc1c[nH]c2ccccc12)C(=O)N[C@H](CC(N)=O)C(=O)N[C@@H](CC(=O)O)C(=O)N[C@@H]1C(=O)NCC(=O)N[C@@H](CCCN)C(=O)N[C@@H](CC(=O)O)C(=O)N[C@H](C)C(=O)N[C@@H](CC(=O)O)C(=O)NCC(=O)N[C@H](CO)C(=O)N[C@@H]([C@H](C)CC(=O)O)C(=O)N[C@@H](CC(=O)c2ccccc2N)C(=O)O[C@@H]1C
Ratio: 0.3
